B1: Apolipophorin-3b, P10762 (parent)
chain: MNTLLAVLMLAVAAQARPDAAGHVNIAEAVQQLNHTIVNAAHELHETLGLPTPDEALNLLTEQANAFKTKIAEVTTSLKQEAEKHQGSVAEQLNRFARNLNNSIHDAATSAQPADQLNSLQSALTNVGHQWQTSQPRPSVAQEAWAPVQSALQEAAEKTKEAAANLQNSIQSAVQKPAN

# Variants of: B1
# applied.conditions: Locusta migratoria; pH 7.4; 25 °C; GdnHCl; CD; Na2HPO4 KH2PO4 10 mM 2 mM; NaCl 127 mM; reversible: yes; structure 1LS4; whole UniProt chain shown
Reported unfolding free energy is given for each of the following variants.
quantity.measured: unfolding free energy (kcal/mol)

1. T159A = 0.73
2. L33K = 0.69
3. T47A = 2.65
4. A155K = 0.36
5. T47A T159A = 0.99
